Source of measurements: PubChem BioAssay (NCI)

# growth per entry
Tested on: HCT-15 colon
measurement.notes: NCI-60 one-dose screen, 48 h (100 = growth as untreated, 0 = no growth, -100 = all killed)
condition.description: 10 µM unless noted
About 83,000 compounds went through this panel and 20% of them were active in at least one assay; those are over-represented in the sample as a whole.

compound: CC1=C(C)C(=O)C(NCCN2CCOCC2)=C(Br)C1=O
growth [%]: 90.7
--
compound: CC(=O)Nc1ccc(S(=O)(=O)Nc2ccc(-c3ccc4c(c3)NC(=O)/C4=C\c3ccc[nH]3)cc2)cc1
growth [%]: 98.3
--
compound: Cn1cc(-c2cc3nc(-c4c[nH]c5ccccc45)cc(N)n3n2)c2ccccc21
growth [%]: -73
--
compound: COc1ccc(/C=C/C(=O)c2ccc(S(=O)(=O)NCCNc3nc(N(C)C)nc(N4CCOCC4)n3)cc2)cc1
growth [%]: 59.3
--
compound: O=C(N/N=C/c1ccc(Br)o1)c1[nH]c2ccc(Br)cc2c1-c1ccccc1
growth [%]: -6.94
--
compound: CN(CCSSCCN1CCOCC1)C(=O)Oc1cc2c(c3ccccc13)[C@H](CCl)CN2C(=O)c1cc2cc(OCCCN3CCC3)ccc2[nH]1
growth [%]: -49.3
--
compound: C=CCSc1nnc(-c2ccc(-c3nc4ccc(Cl)cc4[nH]3)cc2)o1
growth [%]: 28
--
compound: COc1cc2cc(C(=O)N3C[C@@H](CCl)c4c3cc(OC(=O)N(CCC(=O)N3CCN(C)CC3)C3CCCCC3)c3ccccc43)[nH]c2c(OC)c1OC
growth [%]: -34.5
--
compound: CCN(C(=O)CN1C(=O)/C(=C/c2ccco2)SC1=S)C1CCS(=O)(=O)C1 (stereo not drawn)
growth [%]: 88.8
--
compound: COc1ccc(-c2nc3ccc(-c4nnc(SCc5ccccc5)o4)cc3[nH]2)cc1
growth [%]: -17.4
--
compound: CN1CCN(CCS(=O)(=O)Nc2cc(-c3ccc4ncnc(Nc5ccc(F)c(Cl)c5)c4c3)cnc2Cl)CC1
growth [%]: 24.5
--
compound: COc1ccc2ccccc2c1/C=C1\SC(=Nc2ccc(O)cc2)NC1=O
growth [%]: 4.61
--
compound: NC(=Nc1ccc(OCCCCCCCCn2cnnn2)cc1)c1ccccc1
growth [%]: 14.6
--
compound: COc1ccc(-c2cc(C(=O)Oc3ccc(C=O)cc3OC)nn2-c2ccc(S(C)(=O)=O)cc2)cc1
growth [%]: 81.9
--
compound: Cc1ccc2c(c1)nc(-c1ccccc1)n2CC(=O)N=Nc1c(O)[nH]c2ccc(Cl)cc12
growth [%]: -45.7
--
compound: Cc1ccc(C2CC(c3ccc(NC(=O)Nc4ccccc4)cc3)=NN2c2ccc(S(C)(=O)=O)cc2)cc1 (stereo not drawn)
growth [%]: -84.4
--
compound: O=C(Nc1ccc(Cl)c(C(F)(F)F)c1)N1CCN(c2cc(-c3cn(-c4ccccc4)nc3-c3cccc(O)c3)ccn2)CC1
growth [%]: -7.34
--
compound: COc1ccc(NC(=O)Cn2c(/C=C/c3cccc(OC)c3)nc3ccccc3c2=O)cc1
growth [%]: 70.9

###

Test system: MCF7 breast
measurement.notes: NCI-60 one-dose screen, 48 h
condition.description: 10 µM unless noted
Compounds without any hit were thinned out: in the full panel of roughly 83,000, 20% have a hit. Calls of active or inactive are those of the source. The calls were made as follows: active = growth percent below 10; inactive = the rest.
Outcomes: active, inactive

molecule: CS(=O)(=O)c1ccc(-n2nc(C(=O)NCc3ccccc3)cc2-c2ccc(Cl)cc2)cc1
target.entity: MCF7 breast
assigned.category: inactive
--
molecule: COc1ccc(-c2nc3ccc(-c4nnc(SCC(=O)Nc5ccc(/C(C)=N\O)cc5)o4)cc3[nH]2)cc1
target.entity: MCF7 breast
assigned.category: inactive
--
molecule: N#CC1=C(c2cccs2)Nc2c(c(-c3ccccc3)nn2-c2ccccc2)C12C(=O)Nc1ccc(Br)cc12 (configuration not stated)
target.entity: MCF7 breast
assigned.category: active
--
molecule: COc1cccc2nc(Nc3cccc(NC(=O)c4ccc(CN5CCN(C)CC5)c(C(F)(F)F)c4)c3)ccc12
target.entity: MCF7 breast
assigned.category: active
--
molecule: O=C(Nc1nc2ccc([N+](=O)[O-])cc2s1)Nc1ccc(Cl)cc1Cl
target.entity: MCF7 breast
assigned.category: inactive
--
molecule: O=C(NNC(=O)c1ccc(OCc2nc3ccc(Cl)cc3[nH]2)cc1)Nc1ccc(Cl)c(C(F)(F)F)c1
target.entity: MCF7 breast
assigned.category: inactive
--
molecule: COc1cc(CNC(=O)C[C@H](C)CCC=C(C)C)ccc1OCc1cn(-c2ccc(Cl)cc2Cl)nn1
target.entity: MCF7 breast
assigned.category: inactive
--
molecule: O=C(N/N=C/c1ccc(B(O)O)s1)c1[nH]c2ccc(Br)cc2c1-c1ccccc1
target.entity: MCF7 breast
assigned.category: active
--
molecule: CCCCNc1ccc2c3c(cccc13)C(=O)N(NCC(O)COc1ccc3c(C)cc(=O)oc3c1)C2=O (configuration not stated)
target.entity: MCF7 breast
assigned.category: inactive
--
molecule: COc1cc(CNC(=O)C[C@H](C)CCC=C(C)C)ccc1OCc1cn(-c2ccccc2Cl)nn1
target.entity: MCF7 breast
assigned.category: inactive
--
molecule: Clc1ccccc1Nc1nnc(-c2c[nH]c3ccccc23)o1
target.entity: MCF7 breast
assigned.category: inactive
--
molecule: Clc1ccc(-c2nc3c4c(-c5ccccc5)c(-c5ccccc5)n(Cc5ccccc5)c4ncn3n2)cc1
target.entity: MCF7 breast
assigned.category: active
--
molecule: O=C(CSc1nnc(-c2ccc(-c3nc4ccccc4[nH]3)cc2)o1)Nc1ccc(Cl)cc1
target.entity: MCF7 breast
assigned.category: active
--
molecule: N#Cc1c(NC(=O)N2CCOCC2)n(-c2ccc(OC(F)(F)F)cc2)c2cc(F)ccc12
target.entity: MCF7 breast
assigned.category: inactive
--
molecule: Clc1ccc(Nc2nnc(-c3c[nH]c4ccccc34)o2)cc1
target.entity: MCF7 breast
assigned.category: inactive
--
molecule: COc1ccc(NC(=O)Nc2nc3ccc([N+](=O)[O-])cc3s2)cc1
target.entity: MCF7 breast
assigned.category: active
--
molecule: Cc1ccc(C(=O)Nc2cc(-n3ccnc3)cc(C(F)(F)F)c2)cc1-n1cc(-c2cnc3cccnn23)nn1
target.entity: MCF7 breast
assigned.category: inactive
--
molecule: C#CCCCNCCNc1ccnc2cc(Cl)ccc12
target.entity: MCF7 breast
assigned.category: inactive
--
molecule: COc1ccc2c(c1)N=c1c-2cc2c(O)[nH]c(=S)n2c1=O
target.entity: MCF7 breast
assigned.category: inactive
--
molecule: O=CNc1cccc(-n2cnc3cc(-c4ccc(O)cc4)ccc32)c1
target.entity: MCF7 breast
assigned.category: inactive
--
molecule: COc1cncc(-c2ccc3ncnc(N4CCc5ccc(Cl)cc54)c3c2)c1
target.entity: MCF7 breast
assigned.category: active
--
molecule: COc1ccc(NC2=C(I)C(=O)C(C)=C(C)C2=O)cc1
target.entity: MCF7 breast
assigned.category: active
--
molecule: O=C1Nc2cc(-c3ccc(NS(=O)(=O)c4ccc(-c5ccccc5)cc4)cc3)ccc2/C1=C/c1ccc[nH]1
target.entity: MCF7 breast
assigned.category: active
--
molecule: COc1ccc2c(c1)C(=O)N(C)C2C1c2c(cc3c(c2OC)OCO3)CCN1C (configuration not stated)
target.entity: MCF7 breast
assigned.category: inactive
--
molecule: O=C(Nc1nc2ccccc2s1)Nc1ccccc1Cl
target.entity: MCF7 breast
assigned.category: inactive
--
molecule: Nc1nnc(CS(=O)(=O)c2ccccc2)s1
target.entity: MCF7 breast
assigned.category: inactive
--
molecule: Cc1nn(-c2ccccc2)c2nc(C)n(CC(=O)N/N=C/c3cccc([N+](=O)[O-])c3)c(=O)c12
target.entity: MCF7 breast
assigned.category: inactive
--
molecule: C[C@@H](Nc1c(C#N)cnc2ccc(-c3cnc4[nH]ncc4c3)cc12)c1ccccc1
target.entity: MCF7 breast
assigned.category: active
--
molecule: CC(C)(C)OC(=O)N1CCC2(CC1)Oc1ccccc1[C@H]1CC(c3ccc(Br)cc3)=NN12
target.entity: MCF7 breast
assigned.category: inactive
--
molecule: COc1cc(C2CC(c3ccc(S(=O)(=O)NCCNc4nc(N(C)C)nc(N5CCOCC5)n4)cc3)=Nc3c(N)nc(N)nc3N2)cc(OC)c1OC (configuration not stated)
target.entity: MCF7 breast
assigned.category: inactive
--
molecule: CN(C)c1nc(NCCNS(=O)(=O)c2ccc(C(=O)/C=C/c3ccc(C(F)(F)F)cc3)cc2)nc(N2CCOCC2)n1
target.entity: MCF7 breast
assigned.category: active
--
molecule: C/C(=N/O)c1ccc(NC(=O)CSc2nnc(-c3ccc(-c4nc5ccc(Cl)cc5[nH]4)cc3)o2)cc1
target.entity: MCF7 breast
assigned.category: active
--
molecule: C=CC(=O)Nc1ccc(C(=O)/C=C/c2ccc(N(C)C)cc2)c(O)c1
target.entity: MCF7 breast
assigned.category: inactive
--
molecule: C[C@H](NC(=O)c1ccc2c(-c3ccc(C(F)(F)F)cc3)cccc2c1)c1ccccn1
target.entity: MCF7 breast
assigned.category: inactive
--
molecule: O=C1/C(=C/c2cccc3c2OCO3)Cc2c(F)cc(Br)cc21
target.entity: MCF7 breast
assigned.category: inactive
--
molecule: COc1cc2cc(C(=O)N3C[C@@H](CCl)c4c3cc(OC(=O)N(CCC(=O)N3CCN(C)CC3)[C@H]3CCSSC3)c3ccccc43)[nH]c2c(OC)c1OC
target.entity: MCF7 breast
assigned.category: active
--
molecule: CCOc1ccccc1[C@H]1C(C(=O)c2ccc(Cl)cc2)C2(N[C@@H]1c1ccccc1)C(=O)Nc1ccc(Br)cc12 (some centres not stated)
target.entity: MCF7 breast
assigned.category: active
